System: SF-539 CNS
Experiment Summary: NCI-60 one-dose screen, 48 h
Applied Conditions: 10 µM unless noted
The panel holds about 83,000 compounds, 20% with a hit somewhere; the sample as a whole holds those more often. Calls of active or inactive are those of the source. The calls were made as follows: active = growth percent below 10; inactive = the rest.
Outcome codes: active, inactive

# Molecule, Category Label
data = [
    ("COc1cc2ccccc2cc1C(=O)NC(=S)Nc1ccc(-c2nc3ccccc3[nH]2)cc1", "inactive"),
    ("CN(C)c1ccc(/C=C/c2c(F)cccc2F)cc1", "inactive"),
    ("O=[N+]([O-])c1ccc2[nH]cc(-c3c4ccsc4cc4[nH]c5ccc([N+](=O)[O-])cc5c34)c2c1", "active"),
    ("COC1=CC(c2ccc[nH]2)=N/C1=C\\c1[nH]c(C)c(C(=O)OCCn2cc(CCC[C@@H]3Cc4cc(O)ccc4C4CC[C@]5(C)[C@@H](O)CC[C@H]5C43)nn2)c1C (some centres undefined)", "inactive"),
    ("CN1CCN(c2ccc(Nc3ncc(Cl)c(NC[C@@H]4CCCO4)n3)cc2)CC1", "active"),
    ("Cc1cnc(Nc2ccc(N3CCN(C)CC3)cc2)nc1Nc1ccc(Cl)c(NS(=O)(=O)C(C)(C)C)c1", "active"),
    ("C=C1c2c(C)nn(-c3ccc(N)cc3)c2N(C)C23CC1C1(C)c4c(C)nn(-c5ccc(N)cc5)c4N(C)C(C)(CC12)C3 (centres undefined)", "inactive"),
    ("Cc1nc(Nc2cccc(NC(=O)Nc3ccc(Cl)cc3)c2)c2ccccc2n1", "inactive"),
    ("CCCCCCNc1cc(C)nc2ccc(OC)cc12", "inactive"),
    ("CCCc1nc2ccccn2c1Nc1ccc(C(=O)NO)cc1", "inactive"),
    ("COc1cccc(CCC2CCCN(c3cc(C)nc(N)n3)C2)c1 (centres undefined)", "inactive"),
    ("C=C1C(=O)O[C@H]2[C@H]1CC/C(Cn1cc(CNCCc3c[nH]c4ccccc34)nn1)=C\\CC[C@@]1(C)O[C@@H]21", "inactive"),
    ("CN(C)c1ccc(C#Cc2c(F)cccc2Cl)cc1", "inactive"),
    ("CS(=O)(=O)c1ccc(-c2[nH]c3ccc(F)cc3c2/C=N/O)cc1", "inactive"),
    ("Cc1ccccc1NC(=O)CN(C)C", "inactive"),
    ("Cc1ccc(S(=O)(=O)N(CC[C@@H]2C[C@H]2c2cc3ccccc3o2)C(=O)NC2CCCCC2)cc1", "inactive"),
    ("O=C(CCl)N1c2cccc3cccc(c23)N(C(=O)CCl)C1c1cn(-c2ccccc2)nc1-c1cccc([N+](=O)[O-])c1", "inactive"),
    ("CCOc1ccc(-c2nc3ccc(-c4nc5ccc(N6CCN(C)CC6)cc5[nH]4)cc3[nH]2)cc1OCC", "active"),
    ("O=C1c2ccccc2C2(c3ccc(O)cc3)c3ccccc3Oc3cccc1c32 (centres undefined)", "active"),
]
